# Tested on: biotinyl-Ile-oxazolone
# TEST_NAME: self-aminoacylation, catalytic enhancement (BIO) (fold over background); higher = more active; k-Seq, kA / k0A0; sequences stand for … in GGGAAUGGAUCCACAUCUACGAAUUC…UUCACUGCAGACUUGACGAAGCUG
Variants at the floor of the assay were thinned out.

SEQUENCE_DATA: AUGCACCGAGGUCAUCGGGUG [Fam2.2 aminoacylation ribozyme variant]
SYSTEM_UNDER_TEST: biotinyl-Ile-oxazolone
self-aminoacylation: 3.81
//
SEQUENCE_DATA: AUUACACUGGUCAUCGAGGGA [Fam2.1 aminoacylation ribozyme variant]
SYSTEM_UNDER_TEST: biotinyl-Ile-oxazolone
self-aminoacylation: 1.64
//
SEQUENCE_DATA: AUUCACCUAGGUCAUCGGGAA [Fam2.2 aminoacylation ribozyme variant]
SYSTEM_UNDER_TEST: biotinyl-Ile-oxazolone
self-aminoacylation: 4.54
//
SEQUENCE_DATA: AUUUACCUAGGUCAUCCGGUG [Fam2.2 aminoacylation ribozyme variant]
SYSTEM_UNDER_TEST: biotinyl-Ile-oxazolone
self-aminoacylation: 3.68
//
SEQUENCE_DATA: AUUCACCUAGGUCAACGGGUC [Fam2.2 aminoacylation ribozyme variant]
SYSTEM_UNDER_TEST: biotinyl-Ile-oxazolone
self-aminoacylation: 0.899
//
SEQUENCE_DATA: AUUACCUUGGUCAUUGAGUGA [Fam2.1 aminoacylation ribozyme variant]
SYSTEM_UNDER_TEST: biotinyl-Ile-oxazolone
self-aminoacylation: 4.08
//
SEQUENCE_DATA: AUUGACCUAGGUCAUCGGGGG [Fam2.2 aminoacylation ribozyme variant]
SYSTEM_UNDER_TEST: biotinyl-Ile-oxazolone
self-aminoacylation: 3.41
//
SEQUENCE_DATA: CCACACUUCAAAGAAUCGGUC [Fam1B.1 aminoacylation ribozyme variant]
SYSTEM_UNDER_TEST: biotinyl-Ile-oxazolone
self-aminoacylation: 0.988
//
SEQUENCE_DATA: CCAGACUUUAAGCAAUCGGUC [Fam1B.1 aminoacylation ribozyme variant]
SYSTEM_UNDER_TEST: biotinyl-Ile-oxazolone
self-aminoacylation: 1.11

---

# System: biotinyl-Met-oxazolone
# TEST_NAME: self-aminoacylation, catalytic enhancement (BMO) (fold over background); higher = more active; k-Seq, kA / k0A0; sequences stand for … in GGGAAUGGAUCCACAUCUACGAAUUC…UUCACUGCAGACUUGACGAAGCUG
This sample holds only a part of the variants without activity.
Listing: self-aminoacylation of selected sequences

SEQUENCE_DATA: CGUCACCUAGGUCAUCGGGUG [Fam2.2 aminoacylation ribozyme variant]
SYSTEM_UNDER_TEST: biotinyl-Met-oxazolone
self-aminoacylation: 3.71
//
SEQUENCE_DATA: AUUCACCUAGCUCAUUGGGUG [Fam2.2 aminoacylation ribozyme variant]
SYSTEM_UNDER_TEST: biotinyl-Met-oxazolone
self-aminoacylation: 1.89
//
SEQUENCE_DATA: CCACACAUCAAGCAAUCGAUC [Fam1B.1 aminoacylation ribozyme variant]
SYSTEM_UNDER_TEST: biotinyl-Met-oxazolone
self-aminoacylation: 0.439
//
SEQUENCE_DATA: GCACACUUCAAGCAAUCGGUG [Fam1B.1 aminoacylation ribozyme variant]
SYSTEM_UNDER_TEST: biotinyl-Met-oxazolone
self-aminoacylation: 8.09
//
SEQUENCE_DATA: CUUCUUAAAACAAUCGGUCUG [Fam1A.1 aminoacylation ribozyme variant]
SYSTEM_UNDER_TEST: biotinyl-Met-oxazolone
self-aminoacylation: 0.895
//
SEQUENCE_DATA: AAGUUUGCUAAUAGUCCCAUG [Fam3.1 aminoacylation ribozyme variant]
SYSTEM_UNDER_TEST: biotinyl-Met-oxazolone
self-aminoacylation: 0.887
//
SEQUENCE_DATA: CUACUUGAAACAAUCGGACUG [Fam1A.1 aminoacylation ribozyme variant]
SYSTEM_UNDER_TEST: biotinyl-Met-oxazolone
self-aminoacylation: 0.782
//
SEQUENCE_DATA: AUUACCCUGGACAUCGAGUGC [Fam2.1 aminoacylation ribozyme variant]
SYSTEM_UNDER_TEST: biotinyl-Met-oxazolone
self-aminoacylation: 0.807

---

# System: biotinyl-Met-oxazolone
# TEST_NAME: self-aminoacylation, catalytic enhancement (BMO) (fold over background); higher = more active; k-Seq, kA / k0A0; sequences stand for … in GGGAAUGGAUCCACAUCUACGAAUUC…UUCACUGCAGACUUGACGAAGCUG
Fewer inactive variants are shown than the library holds.

SEQUENCE_DATA: CUUACGCUGGUCAUCGAGUGA [Fam2.1 aminoacylation ribozyme variant]
self-aminoacylation: 3.06

SEQUENCE_DATA: AGUCACGUAGGUCAUCGGGUG [Fam2.2 aminoacylation ribozyme variant]
self-aminoacylation: 5.11

SEQUENCE_DATA: AUUACGCUGGACAUCGAGUGA [Fam2.1 aminoacylation ribozyme variant]
self-aminoacylation: 4.42

SEQUENCE_DATA: AUUAACCUAGGUCAUCGCGUG [Fam2.2 aminoacylation ribozyme variant]
self-aminoacylation: 6.95

SEQUENCE_DATA: AUUACACUGGUCAUCGACUGA [Fam2.1 aminoacylation ribozyme variant]
self-aminoacylation: 0.596

SEQUENCE_DATA: AUUCACCUAUGUCGUCGGGUG [Fam2.2 aminoacylation ribozyme variant]
self-aminoacylation: 1.28

SEQUENCE_DATA: AAUCACCUAGGUCAUCGCGUG [Fam2.2 aminoacylation ribozyme variant]
self-aminoacylation: 11.3

SEQUENCE_DATA: ACUACCUUGGUCAUCGAGUGA [Fam2.1 aminoacylation ribozyme variant]
self-aminoacylation: 3.77

SEQUENCE_DATA: GUUAACCUAGGUCAUCGGGUG [Fam2.2 aminoacylation ribozyme variant]
self-aminoacylation: 11.9

---

# Test system: biotinyl-Ile-oxazolone
# TEST_NAME: self-aminoacylation, catalytic enhancement (BIO) (fold over background); higher = more active; k-Seq, kA / k0A0; sequences stand for … in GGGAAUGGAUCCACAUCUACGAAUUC…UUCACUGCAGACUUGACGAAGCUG
This sample holds only a part of the variants without activity.

SEQUENCE_DATA: CCACGCUUCAAGCAAUCGGUC [Fam1B.1 aminoacylation ribozyme variant]
SYSTEM_UNDER_TEST: biotinyl-Ile-oxazolone
self-aminoacylation: 1.2
--
SEQUENCE_DATA: AUGCACCUAAGUCAUCGGGUG [Fam2.2 aminoacylation ribozyme variant]
SYSTEM_UNDER_TEST: biotinyl-Ile-oxazolone
self-aminoacylation: 5.66
--
SEQUENCE_DATA: UUUCACUUAGGUCAUCGGGUG [Fam2.2 aminoacylation ribozyme variant]
SYSTEM_UNDER_TEST: biotinyl-Ile-oxazolone
self-aminoacylation: 4.22
--
SEQUENCE_DATA: AUUACCCUGUUCAUCGCGUGA [Fam2.1 aminoacylation ribozyme variant]
SYSTEM_UNDER_TEST: biotinyl-Ile-oxazolone
self-aminoacylation: 9.25
--
SEQUENCE_DATA: AUUACCCUAGUUAUCGAGUGA [Fam2.1 aminoacylation ribozyme variant]
SYSTEM_UNDER_TEST: biotinyl-Ile-oxazolone
self-aminoacylation: 3.77
--
SEQUENCE_DATA: AAGUUUGCUAAUAGUGGCAUG [Fam3.1 aminoacylation ribozyme variant]
SYSTEM_UNDER_TEST: biotinyl-Ile-oxazolone
self-aminoacylation: 0.823
--
SEQUENCE_DATA: AAGUUUGCUAAUAGUGGCAAC [Fam3.1 aminoacylation ribozyme variant]
SYSTEM_UNDER_TEST: biotinyl-Ile-oxazolone
self-aminoacylation: 0.805
--
SEQUENCE_DATA: AUUCAGCUAGGUCAUCAGGUG [Fam2.2 aminoacylation ribozyme variant]
SYSTEM_UNDER_TEST: biotinyl-Ile-oxazolone
self-aminoacylation: 1.63
--
SEQUENCE_DATA: AUUACCAUGGUCAUCAAGUGA [Fam2.1 aminoacylation ribozyme variant]
SYSTEM_UNDER_TEST: biotinyl-Ile-oxazolone
self-aminoacylation: 2.22
--
SEQUENCE_DATA: CUACUCAAAACAAUCGGUCUG [Fam1A.1 aminoacylation ribozyme variant]
SYSTEM_UNDER_TEST: biotinyl-Ile-oxazolone
self-aminoacylation: 1.02
--
SEQUENCE_DATA: AAGUUUGCUAAAAGUUGCAAG [Fam3.1 aminoacylation ribozyme variant]
SYSTEM_UNDER_TEST: biotinyl-Ile-oxazolone
self-aminoacylation: 0.983
--
SEQUENCE_DATA: AGUCACCUAGGUUAUCGGGUG [Fam2.2 aminoacylation ribozyme variant]
SYSTEM_UNDER_TEST: biotinyl-Ile-oxazolone
self-aminoacylation: 4.39
--
SEQUENCE_DATA: AUUCACCUAGUUCAUCCGGUG [Fam2.2 aminoacylation ribozyme variant]
SYSTEM_UNDER_TEST: biotinyl-Ile-oxazolone
self-aminoacylation: 3.1
--
SEQUENCE_DATA: AUUCGCCUAGGUCAUCAGGUG [Fam2.2 aminoacylation ribozyme variant]
SYSTEM_UNDER_TEST: biotinyl-Ile-oxazolone
self-aminoacylation: 1.48
--
SEQUENCE_DATA: AAUCCCCUAGGUCAUCGGGUG [Fam2.2 aminoacylation ribozyme variant]
SYSTEM_UNDER_TEST: biotinyl-Ile-oxazolone
self-aminoacylation: 7.49
--
SEQUENCE_DATA: CUACUGCAAAAAAUCGGUCUG [Fam1A.1 aminoacylation ribozyme variant]
SYSTEM_UNDER_TEST: biotinyl-Ile-oxazolone
self-aminoacylation: 0.788
--
SEQUENCE_DATA: CCACACUGCAAGCGAUCGGUC [Fam1B.1 aminoacylation ribozyme variant]
SYSTEM_UNDER_TEST: biotinyl-Ile-oxazolone
self-aminoacylation: 1.27
--
SEQUENCE_DATA: AUUCACCUAGCUCAUCCGGUG [Fam2.2 aminoacylation ribozyme variant]
SYSTEM_UNDER_TEST: biotinyl-Ile-oxazolone
self-aminoacylation: 2.45
--
SEQUENCE_DATA: AUUACCCAGGUCAUCGAGUGG [Fam2.1 aminoacylation ribozyme variant]
SYSTEM_UNDER_TEST: biotinyl-Ile-oxazolone
self-aminoacylation: 1.14
--
SEQUENCE_DATA: CUACUUCAAACAUUCGGUCUC [Fam1A.1 aminoacylation ribozyme variant]
SYSTEM_UNDER_TEST: biotinyl-Ile-oxazolone
self-aminoacylation: 0.986
--
SEQUENCE_DATA: CUACUUCAAGCAAUCGGUCUU [Fam1A.1 aminoacylation ribozyme variant]
SYSTEM_UNDER_TEST: biotinyl-Ile-oxazolone
self-aminoacylation: 1.07
--
SEQUENCE_DATA: UUUACCCUGGUCAUCGUGUGA [Fam2.1 aminoacylation ribozyme variant]
SYSTEM_UNDER_TEST: biotinyl-Ile-oxazolone
self-aminoacylation: 1.66
--
SEQUENCE_DATA: GUACACUUCAAGCAAUCGGUC [Fam1B.1 aminoacylation ribozyme variant]
SYSTEM_UNDER_TEST: biotinyl-Ile-oxazolone
self-aminoacylation: 1.55
--
SEQUENCE_DATA: AUUCACCUAGGACAUUGGGUG [Fam2.2 aminoacylation ribozyme variant]
SYSTEM_UNDER_TEST: biotinyl-Ile-oxazolone
self-aminoacylation: 2.24
--
SEQUENCE_DATA: CUACGUCAAACAUUCGGUCUG [Fam1A.1 aminoacylation ribozyme variant]
SYSTEM_UNDER_TEST: biotinyl-Ile-oxazolone
self-aminoacylation: 2.87
--
SEQUENCE_DATA: CCACACUUAAAGCAACCGGUC [Fam1B.1 aminoacylation ribozyme variant]
SYSTEM_UNDER_TEST: biotinyl-Ile-oxazolone
self-aminoacylation: 1.08
--
SEQUENCE_DATA: CCACAAUUCAAACAAUCGGUC [Fam1B.1 aminoacylation ribozyme variant]
SYSTEM_UNDER_TEST: biotinyl-Ile-oxazolone
self-aminoacylation: 1.26
--
SEQUENCE_DATA: AAGUUAUCUAAUAGUCGCAAG [Fam3.1 aminoacylation ribozyme variant]
SYSTEM_UNDER_TEST: biotinyl-Ile-oxazolone
self-aminoacylation: 1.51
--
SEQUENCE_DATA: CAACUUCAGACAAUCGGUCUG [Fam1A.1 aminoacylation ribozyme variant]
SYSTEM_UNDER_TEST: biotinyl-Ile-oxazolone
self-aminoacylation: 1.09
--
SEQUENCE_DATA: ACACUCUUCAAGCAAUCGGUC [Fam1B.1 aminoacylation ribozyme variant]
SYSTEM_UNDER_TEST: biotinyl-Ile-oxazolone
self-aminoacylation: 0.997
--
SEQUENCE_DATA: AGUACCCUGGUCAACGAGUGA [Fam2.1 aminoacylation ribozyme variant]
SYSTEM_UNDER_TEST: biotinyl-Ile-oxazolone
self-aminoacylation: 2.91
--
SEQUENCE_DATA: CCACACUUCAAGCGAUCGGUU [Fam1B.1 aminoacylation ribozyme variant]
SYSTEM_UNDER_TEST: biotinyl-Ile-oxazolone
self-aminoacylation: 1.77
--
SEQUENCE_DATA: CUACUUUAAGCAAUCGGUCUG [Fam1A.1 aminoacylation ribozyme variant]
SYSTEM_UNDER_TEST: biotinyl-Ile-oxazolone
self-aminoacylation: 0.721
--
SEQUENCE_DATA: CUACUUCAAACAAGGGGUCUG [Fam1A.1 aminoacylation ribozyme variant]
SYSTEM_UNDER_TEST: biotinyl-Ile-oxazolone
self-aminoacylation: 0.773
--
SEQUENCE_DATA: AUACACCUAGGUCAUGGGGUG [Fam2.2 aminoacylation ribozyme variant]
SYSTEM_UNDER_TEST: biotinyl-Ile-oxazolone
self-aminoacylation: 2.52
